Study the reported pKi values for Muscarinic acetylcholine receptor M5 (Homo sapiens) given below; they originate from different publications.
TESTED SYSTEM: Muscarinic acetylcholine receptor M5 (Homo sapiens)
Sequence (P08912 whole entry): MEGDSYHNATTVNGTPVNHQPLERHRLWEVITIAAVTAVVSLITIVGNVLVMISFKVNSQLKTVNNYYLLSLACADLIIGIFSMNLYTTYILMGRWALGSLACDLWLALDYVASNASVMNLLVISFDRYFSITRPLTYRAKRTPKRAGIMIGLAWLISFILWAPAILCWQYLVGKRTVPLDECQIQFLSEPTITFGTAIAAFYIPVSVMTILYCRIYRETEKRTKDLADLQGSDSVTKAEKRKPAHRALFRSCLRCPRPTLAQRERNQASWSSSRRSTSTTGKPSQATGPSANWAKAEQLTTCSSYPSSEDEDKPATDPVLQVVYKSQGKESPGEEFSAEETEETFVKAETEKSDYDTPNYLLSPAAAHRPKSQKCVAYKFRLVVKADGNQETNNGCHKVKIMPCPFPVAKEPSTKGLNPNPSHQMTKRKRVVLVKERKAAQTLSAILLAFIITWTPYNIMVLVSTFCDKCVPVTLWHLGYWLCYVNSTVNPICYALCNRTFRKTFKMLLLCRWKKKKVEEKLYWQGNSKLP
Quick note: pKi values are minus log10 of concentrations in mol/L.

Input CN1CCN(CCCC(O)(c2ccccc2)c2ccccc2)CC1 . Output pKi: 4.87

Measured pKi of Cc1ccc2c(c1)C(C(C)c1ccccn1)=C(CCN(C)C)C2 (stereo unspecified) : 5.23

Entry C[N+](C)(C)C[C@@H]1COC[C@@H](C(c2ccccc2)c2ccccc2)O1 (relative stereo) ; pKi = 4.50

Briefly, pKi measured for CC1(C)C(/C=C/C=C/C=C2/N(CCCCCC(=O)NCCNC(=O)CCc3cn(CCCCC4CCN(CC(=O)N5c6ccccc6NC(=O)c6ccccc65)CC4)cn3)c3ccc(S(=O)(=O)O)cc3C2(C)C)=[N+](CCCCS(=O)(=O)[O-])c2ccccc21.O=C(O)C(F)(F)F : 6.78

Note to self: pKi recorded for CN1CCC[C@H]1[C@H]1C[S+]([O-])[C@](c2ccccc2)(C2CCCCC2)O1 (stereo in doubt; (-)-9) was 6.42

In plain terms, CN1CCC=C(c2nsnc2OCCCCCCCCCC2CCN(CCCN3C(=O)CCc4ccccc43)CC2)C1 has a documented pKi of 8.53

Lab note: CN(CCc1ccccc1)[C@H]1C2C3CC4C2C(=O)C2C4C3C21 (stereo partly specified) gave pKi of 5.62

The recorded pKi for COc1ccc(CCN(C(=O)OC2CCCN(C)C2)c2ccccc2)cc1 (stereo unspecified) is 5.98

# pKi of O=C1CCc2ccccc2N1CCCN1CCC(CCCCCCCO)CC1 = 5.51

Sure, the documented pKi for CN1CCC(Oc2nc3ccccc3n2-c2ccccc2)C1 (racemic) is 7.85

So, COc1ccc(CCN(C(=O)OC2CCCN(C)C2)c2ccccc2)cc1OC (stereo unspecified) ? Its pKi was 5.35

The recorded pKi for O=C1CCc2ccccc2N1CCCN1CCC(CCCCCCCCCCCO)CC1 is 6.46

Value of pKi reported for the compound O=C(CCNC(=O)CC(c1ccccc1)(c1ccccc1)c1ccccc1)NCCC(=O)NC[C@H]1CCCN(CC2CCCCC2)C1 is 7.52

Notebook: CC(C1=C(CCN(C(C)C)C(C)C)Cc2ccccc21)c1ccccn1 (stereo in doubt; 19) , pKi read as 5.66

response.value for CCCCCCCCCCCC(OC(=O)C(CCCCN(O)C(C)=O)NC(=O)c1coc(-c2ccccc2O)n1)C(C)C(=O)NC1CCCCN(O)C1=O (stereo unspecified) (field: pKi) = 5.93

response.value for CO/N=C/C1=CCCN(C)C1 (field: pKi) = 5.50

So for COc1nsnc1OCCCCCCCCCCCCOc1nsnc1C1=CCCN(C)C1 , the logged pKi turned out to be 6.80

Sure, the documented pKi for CN1/C(=C/C=C/C=C/C2=[N+](CCCCCC(=O)NCCCCCCN3CCC(COC(=O)Nc4ccc(F)cc4-c4ccc(F)c(Cl)c4)CC3)c3ccccc3C2(C)C)C(C)(C)c2ccccc21 is 8.16

// recorded pKi for CC(C1=C(CCN(C)C(C)C)Cc2ccccc21)c1ccccn1 (stereo unspecified) : 5.66

What the record says about C[N+](C)(CCCC(O)(c1ccccc1)c1ccccc1)CC[N+](C)(C)CCCC(O)(c1ccccc1)c1ccccc1 : pKi is 4.74

# pKi (compound: COc1ccc(CCN(C(=O)OC2CCN(C)CC2)c2ccccc2)cc1 ) is 6.72

Kindly note the recorded pKi for CN1CCC=C(c2nsnc2OCCCCCCCCCCCC2CCN(CCCN3C(=O)CCc4ccccc43)CC2)C1 , which is 8.06

The reported value for CCOC(=O)c1c(C)[nH]c2ccc3c(c12)CN1CCc2cc(OC)ccc2C1O3 (stereo unspecified) in terms of pKi is 5.74

Just so you know, measured pKi for C[N+]1(C)CCN(CCCC(O)(c2ccccc2)c2ccccc2)CC1 came out at 5.02

Recorded pKi (compound C[N+]1(C)CCC[C@H]1[C@H]1C[S+]([O-])[C@](c2ccccc2)(C2CCCCC2)O1.[I-] (stereo in doubt; (-)-14) ): 6.48

The measured pKi associated with CN1CCC=C(c2nsnc2OCCCC2CCN(CCCN3C(=O)CCc4ccccc43)CC2)C1 reads 6.99

Entry CN(C)CCC1=C(Cc2ccccn2)c2ccccc2C1 ; pKi = 5.44

For reference, reported pKi for C[N+]1(C)CCC(C2CC[N+](C)(CCCC(O)(c3ccccc3)c3ccccc3)CC2)CC1 (stereo unspecified) stands at 4.59

Notebook: CCCCN1CCC(COC(=O)c2ccc(N)c(OC)c2)CC1 , pKi read as 5.39

So for CCC(=O)NCCNC(=O)CCc1cn(CCCCC2CCN(CC(=O)N3c4ccccc4NC(=O)c4ccccc43)CC2)cn1 , the logged pKi turned out to be 6.80

The compound listed as O=C(c1ccccc1C(F)(F)F)N(CC1CCC1)[C@H]1CCNC1 has a reported pKi of 5.74

Reported pKi ( OC(CCCN1CCC(C2CCN(CCCC(O)(c3ccccc3)c3ccccc3)CC2)CC1)(c1ccccc1)c1ccccc1 ) = 6.11

The value of pKi measured for the compound CN1CCC=C(c2nsnc2OCCCCCCCCCCCCO)C1 turned out to be 6.90
